target: UniProt Q13822; assay: Inhibition of C-terminal FLAG-tagged human recombinant autotaxin using synthetic substrate FS-3 at 10 uM measured every 2 mins by FRET assay relative to control
result_type: inhibition (%)

compound | value_units | inhibition
COCCOCC(=O)N1CCN(c2ccc(C(=O)NC(C(N)=O)C(C)O)cn2)CC1C (stereo not given) | % | 20
O=C(O)CN1C(=O)/C(=C/c2cccc(Oc3ccccc3)c2)S/C1=N\c1ccccc1 | % | 0
CCc1nc2ccc(C(=O)N3CCN(C(C)=O)CC3)cn2c1N(C)C(=O)COc1ccccc1 | % | 0
COc1cccc(CC(=O)NCCNc2nc3cc4c(cc3cc2C#N)OCO4)c1 | % | 20
O=C(Cc1ccccc1OC(=O)Cn1c(=O)sc2ccccc21)Cn1c(=O)sc2ccccc21 | % | 0
COc1ccc(-c2cc(C(=O)NC(C)(C)C(=O)NCCN(C(C)C)C(C)C)c3ccccc3n2)cc1 | % | 0

a. O=[N+]([O-])c1cc(/C=N/c2ccc3nc(SCc4ccc(Br)cc4)sc3c2)ccc1O
b. N#CC1=C(SCC(=O)Nc2ccc(Br)cc2)NC(=O)CC1c1cccc(O)c1 (stereo not given)
Thinking about recorded inhibition values, which is higher, a or b ? Please reply using the label of the selected record.
b
(b: 30%, a: 0%)

P. CCn1c2ccccc2c2cc(/C=C3\SC(=S)N([C@H](Cc4ccc(O)cc4)C(=O)O)C3=O)ccc21
Q. COc1ccc(C2=NN(C(=O)CSc3nnc(CNC(=O)c4ccco4)n3-c3cc(C)ccc3C)C(c3ccc(OC)cc3)C2)cc1 (stereo not given)
# compare inhibition for P vs Q ; return the one with the smaller value Please reply using the label of the selected record.
P

a. COc1cccc(/C=C2/S/C(=N/c3ccccc3)N(Cc3ccccc3)C2=O)c1O
b. COc1cccc(Cc2nc3cc(C(=O)NCC(O)CO)ccc3n2CCc2ccccc2F)c1 (stereo not given)
c. O=C(NCC(O)CO)c1ccc2c(c1)nc(CN1CCC(N3CCCC3)CC1)n2CCc1ccccc1 (stereo not given)
Order by inhibition, ascending. // ordering of labels required in reply
a, b, c

a. Cc1ccc(C(=O)Nc2ccccc2C(=O)O)cc1S(=O)(=O)Nc1ccc(Br)cc1
b. O=C1/C(=C\c2cccc(OCc3ccccc3F)c2)SC(=S)N1Cc1ccccc1
Thinking about recorded inhibition values, which is higher, a or b ? Please reply using the label of the selected record.
b
(b: 10%, a: 0%)

* * *

target: Autotaxin (Homo sapiens); test: Inhibition of C-terminal FLAG-tagged human recombinant autotaxin using synthetic substrate FS-3 at 10 uM measured every 2 mins by FRET assay relative to control
result_type: inhibition (%)

compound | system | inhibition, %
COc1ccc(-c2cc(C(=O)NC(C(=O)NCCCCCCO)C(C)C)c3ccccc3n2)cc1C (stereo not given) | Autotaxin (Homo sapiens) | 10
CC(O)C(NC(=O)c1ccc(N2CCN(C(=O)Cc3ccc(O)cc3)CC2)nc1)C(N)=O (stereo not given) | Autotaxin (Homo sapiens) | 10
COc1ccc(CCn2c(C(C)Oc3ccccc3)nc3cc(C(=O)NCCOCCO)ccc32)cc1OC (stereo not given) | Autotaxin (Homo sapiens) | 20

A. CCCCCCOc1ccc(/C=N/c2ccc(/N=C/c3ccc(OCCCCCC)cc3)c(Cl)c2)cc1
B. COc1ccc(-c2cc(C(=O)NC(C)(C)C(=O)NCCC3CCCN3C)c3ccccc3n2)cc1 (stereo not given)
# compare inhibition for A vs B ; return the one with the smaller value Please reply using the label of the selected record.
A

Where do these numbers come from? They come from ChEMBL document CHEMBL2417420.
